Experiment: activity coefficient (dimensionless); of the first substance listed, at infinite dilution; xn = mol fraction of the nth substance listed
Settings: 323.15 K; 101.33 kPa; Liquid; Chromatography; x1 = 0
Test Readout: activity coefficient

| Compound | Reported |
| --- | --- |
| CC(C)=O [acetone] + CCCCCCn1cc[n+](C)c1C.F[B-](F)(F)F | 0.87 |
| CO [methanol] + CCCCCCn1cc[n+](C)c1C.F[B-](F)(F)F | 0.91 |
| c1ccccc1 [benzene] + CCCCCCn1cc[n+](C)c1C.F[B-](F)(F)F | 1.55 |
| CCc1ccccc1 [ethylbenzene] + CCCCCCn1cc[n+](C)c1C.F[B-](F)(F)F | 3.84 |
| Cc1ccccc1C [1,2-dimethylbenzene] + CCCCCCn1cc[n+](C)c1C.F[B-](F)(F)F | 2.57 |
| CC(C)O [propan-2-ol] + CCCCCCn1cc[n+](C)c1C.F[B-](F)(F)F | 1.67 |
| ClC(Cl)Cl [trichloromethane] + CCCCCCn1cc[n+](C)c1C.F[B-](F)(F)F | 0.72 |
| ClCCl [dichloromethane] + CCCCCCn1cc[n+](C)c1C.F[B-](F)(F)F | 0.74 |
| CCCCCCCCCC [decane] + CCCCCCn1cc[n+](C)c1C.F[B-](F)(F)F | 121 |

----------
Assay: activity coefficient (dimensionless); of the first substance listed, at infinite dilution; xn = mol fraction of the nth substance listed
Details: 333.15 K; 101.33 kPa; Liquid; Chromatography; x1 = 0
Test Readout: activity coefficient

| Compound | Test Readout | Reported |
| --- | --- | --- |
| CCCCCCCCC [nonane] + CCCCCCn1cc[n+](C)c1C.F[B-](F)(F)F | activity coefficient | 77.8 |
| CO [methanol] + CCCCCCn1cc[n+](C)c1C.F[B-](F)(F)F | activity coefficient | 0.86 |
| CCO [ethanol] + CCCCCCn1cc[n+](C)c1C.F[B-](F)(F)F | activity coefficient | 1.23 |
| CC(C)=O [acetone] + CCCCCCn1cc[n+](C)c1C.F[B-](F)(F)F | activity coefficient | 0.9 |
| CC1CCCCC1 [methylcyclohexane] + CCCCCCn1cc[n+](C)c1C.F[B-](F)(F)F | activity coefficient | 24.9 |
| CCCCCC [hexane] + CCCCCCn1cc[n+](C)c1C.F[B-](F)(F)F | activity coefficient | 27.9 |
| CCC(C)O (stereo not drawn) [butan-2-ol] + CCCCCCn1cc[n+](C)c1C.F[B-](F)(F)F | activity coefficient | 2.48 |
| ClC(Cl)(Cl)Cl [tetrachloromethane] + CCCCCCn1cc[n+](C)c1C.F[B-](F)(F)F | activity coefficient | 3.7 |
| Cc1ccccc1C [1,2-dimethylbenzene] + CCCCCCn1cc[n+](C)c1C.F[B-](F)(F)F | activity coefficient | 2.76 |
| CCCCC [pentane] + CCCCCCn1cc[n+](C)c1C.F[B-](F)(F)F | activity coefficient | 22.9 |
| CCOC(C)=O [ethyl acetate] + CCCCCCn1cc[n+](C)c1C.F[B-](F)(F)F | activity coefficient | 2.16 |
| ClCCl [dichloromethane] + CCCCCCn1cc[n+](C)c1C.F[B-](F)(F)F | activity coefficient | 0.8 |
| CC#N [acetonitrile] + CCCCCCn1cc[n+](C)c1C.F[B-](F)(F)F | activity coefficient | 0.56 |
| CC(C)CO [2-methyl-1-propanol] + CCCCCCn1cc[n+](C)c1C.F[B-](F)(F)F | activity coefficient | 2.01 |
| Cc1cccc(C)c1 [1,3-dimethylbenzene] + CCCCCCn1cc[n+](C)c1C.F[B-](F)(F)F | activity coefficient | 3.59 |
| C1CCCCC1 [cyclohexane] + CCCCCCn1cc[n+](C)c1C.F[B-](F)(F)F | activity coefficient | 19.5 |
| CCCCCCC [heptane] + CCCCCCn1cc[n+](C)c1C.F[B-](F)(F)F | activity coefficient | 42.8 |
| CC(C)CC(C)(C)C [2,2,4-trimethylpentane] + CCCCCCn1cc[n+](C)c1C.F[B-](F)(F)F | activity coefficient | 58.2 |

----------
Experiment: activity coefficient (dimensionless); of the first substance listed, at infinite dilution; xn = mol fraction of the nth substance listed
Conditions: 333.15 K; 101.33 kPa; Liquid; Chromatography; x1 = 0
Test Readout: activity coefficient

| Molecule | Reported |
| --- | --- |
| C1=CCCCC1 [cyclohexene] + CCCCCCn1cc[n+](C)c1C.F[B-](F)(F)F | 9.51 |
| CCc1ccccc1 [ethylbenzene] + CCCCCCn1cc[n+](C)c1C.F[B-](F)(F)F | 3.88 |
| c1ccccc1 [benzene] + CCCCCCn1cc[n+](C)c1C.F[B-](F)(F)F | 1.57 |
| CCCO [propan-1-ol] + CCCCCCn1cc[n+](C)c1C.F[B-](F)(F)F | 1.53 |
| CCCCO [butan-1-ol] + CCCCCCn1cc[n+](C)c1C.F[B-](F)(F)F | 2.5 |
| Cc1ccc(C)cc1 [1,4-dimethylbenzene] + CCCCCCn1cc[n+](C)c1C.F[B-](F)(F)F | 3.29 |
| C1COCCO1 [1,4-dioxane] + CCCCCCn1cc[n+](C)c1C.F[B-](F)(F)F | 1.1 |
| CCCCCCCC [octane] + CCCCCCn1cc[n+](C)c1C.F[B-](F)(F)F | 62.1 |
| Cc1ccccc1 [toluene] + CCCCCCn1cc[n+](C)c1C.F[B-](F)(F)F | 2.31 |
| CC(C)O [propan-2-ol] + CCCCCCn1cc[n+](C)c1C.F[B-](F)(F)F | 1.58 |
| CCCCCCCCCC [decane] + CCCCCCn1cc[n+](C)c1C.F[B-](F)(F)F | 112 |
| ClC(Cl)Cl [trichloromethane] + CCCCCCn1cc[n+](C)c1C.F[B-](F)(F)F | 0.77 |
| C1CCOC1 [tetrahydrofuran] + CCCCCCn1cc[n+](C)c1C.F[B-](F)(F)F | 1.63 |

----------
Test: activity coefficient (dimensionless); of the first substance listed, at infinite dilution; xn = mol fraction of the nth substance listed
Conditions: 353.15 K; 101.33 kPa; Liquid; Chromatography; x1 = 0
Parameter activity coefficient: see the listing below.

| Compound | activity coefficient |
| --- | --- |
| CCC(C)O (stereo unspecified) [butan-2-ol] + CCCCCCn1cc[n+](C)c1C.F[B-](F)(F)F | 2.28 |
| CCOC(C)=O [ethyl acetate] + CCCCCCn1cc[n+](C)c1C.F[B-](F)(F)F | 2.26 |
| ClCCl [dichloromethane] + CCCCCCn1cc[n+](C)c1C.F[B-](F)(F)F | 0.93 |
| C1=CCCCC1 [cyclohexene] + CCCCCCn1cc[n+](C)c1C.F[B-](F)(F)F | 9.08 |
| Cc1ccc(C)cc1 [1,4-dimethylbenzene] + CCCCCCn1cc[n+](C)c1C.F[B-](F)(F)F | 3.76 |
| Cc1cccc(C)c1 [1,3-dimethylbenzene] + CCCCCCn1cc[n+](C)c1C.F[B-](F)(F)F | 3.79 |
| C1CCOC1 [tetrahydrofuran] + CCCCCCn1cc[n+](C)c1C.F[B-](F)(F)F | 1.58 |
| CCCO [propan-1-ol] + CCCCCCn1cc[n+](C)c1C.F[B-](F)(F)F | 1.33 |
| C1CCCCC1 [cyclohexane] + CCCCCCn1cc[n+](C)c1C.F[B-](F)(F)F | 18.9 |
| CCCCO [butan-1-ol] + CCCCCCn1cc[n+](C)c1C.F[B-](F)(F)F | 2.27 |
| CCCCCCCCC [nonane] + CCCCCCn1cc[n+](C)c1C.F[B-](F)(F)F | 67.4 |
| Cc1ccccc1 [toluene] + CCCCCCn1cc[n+](C)c1C.F[B-](F)(F)F | 2.4 |
| CCCCCCCC [octane] + CCCCCCn1cc[n+](C)c1C.F[B-](F)(F)F | 60.4 |
| CC1CCCCC1 [methylcyclohexane] + CCCCCCn1cc[n+](C)c1C.F[B-](F)(F)F | 23.9 |
| CCCCC [pentane] + CCCCCCn1cc[n+](C)c1C.F[B-](F)(F)F | 18.8 |
| ClC(Cl)Cl [trichloromethane] + CCCCCCn1cc[n+](C)c1C.F[B-](F)(F)F | 0.87 |
| CCCCCCCCCC [decane] + CCCCCCn1cc[n+](C)c1C.F[B-](F)(F)F | 92 |
| Cc1ccccc1C [1,2-dimethylbenzene] + CCCCCCn1cc[n+](C)c1C.F[B-](F)(F)F | 3.16 |
| CC(C)CC(C)(C)C [2,2,4-trimethylpentane] + CCCCCCn1cc[n+](C)c1C.F[B-](F)(F)F | 57.2 |
| CCc1ccccc1 [ethylbenzene] + CCCCCCn1cc[n+](C)c1C.F[B-](F)(F)F | 3.95 |
| CC(C)O [propan-2-ol] + CCCCCCn1cc[n+](C)c1C.F[B-](F)(F)F | 1.39 |
| CCCCCC [hexane] + CCCCCCn1cc[n+](C)c1C.F[B-](F)(F)F | 25 |
| CO [methanol] + CCCCCCn1cc[n+](C)c1C.F[B-](F)(F)F | 0.78 |
| ClC(Cl)(Cl)Cl [tetrachloromethane] + CCCCCCn1cc[n+](C)c1C.F[B-](F)(F)F | 3.86 |
| CCO [ethanol] + CCCCCCn1cc[n+](C)c1C.F[B-](F)(F)F | 1.09 |
| C1COCCO1 [1,4-dioxane] + CCCCCCn1cc[n+](C)c1C.F[B-](F)(F)F | 1.13 |
| c1ccccc1 [benzene] + CCCCCCn1cc[n+](C)c1C.F[B-](F)(F)F | 1.59 |
| CC(C)CO [2-methyl-1-propanol] + CCCCCCn1cc[n+](C)c1C.F[B-](F)(F)F | 1.85 |
| CCCCCCC [heptane] + CCCCCCn1cc[n+](C)c1C.F[B-](F)(F)F | 37.4 |
| CC#N [acetonitrile] + CCCCCCn1cc[n+](C)c1C.F[B-](F)(F)F | 0.58 |
| CC(C)=O [acetone] + CCCCCCn1cc[n+](C)c1C.F[B-](F)(F)F | 0.96 |
